Test: qHTS assay to identify small molecule antagonists of the estrogen receptor alpha (ER-alpha) signaling pathway using the BG1 cell line in the presence of 0.1 nM 17-beta-estradiol - cell viability counter screen (AID 1259241); also: nearly all actives have a fitted effect of over 40% in size
Conditions: VM7Luc4E2 (BG1) viability, CellTiter-Fluor protease, 22 h, 0.1 nM estradiol agonist added; series mostly up to 92.4 µM
Excerpt: National Center for Advancing Translational Sciences [NCATS] NIH Chemical Genomics Center [NCGC] U.S. Environmental Protection Agency [EPA] National Institutes of Environmental Health Sciences [NIEHS] National Toxicology Program [NTP] U.S. Food and Drug Administration [FDA] Estrogen receptor (ER), a member of the nuclear hormone receptor plays an important role in development, metabolic homeostasis and reproduction. […]
Inconclusive results are not listed. The source made the active and inactive calls. Calls follow the shape of the dose curve; as a rule, active = well fitted cell-killing curve with a large enough effect in the repeat runs; inconclusive = weak or mixed curves, or effect the other way; inactive = flat fitted curve, though single readings scatter.
Please answer using one outcome listed in active, inactive

// below: answered molecules
Input line: In this assay, the call recorded for COc1ccc2c3c1O[C@H]1[C@H](O)CC[C@H]4[C@@H](C2)N(C)CC[C@@]341 was what?
Output line: inactive

Input line: Now consider COP(=O)(OC)O/C(=C\Cl)c1cc(Cl)c(Cl)cc1Cl and answer again.
Output line: inactive

Input line: Now consider CCOP(=S)(OCC)SC(CCl)N1C(=O)c2ccccc2C1=O (stereo not drawn) and answer again.
Output line: inactive

Input line: Now consider CC(=O)C(Cl)C(=O)N(C)C (stereo not drawn) and answer again.
Output line: inactive

Input line: Now consider C[N+]1(C)[C@@H]2CC[C@H]1CC(OC(=O)C(CO)c1ccccc1)C2 (stereo partly drawn) and answer again.
Output line: inactive

New cases:
Input line: In this assay, the call recorded for CCCCCCC[CH2][Sn]([Cl])([Cl])[CH2]CCCCCCC was what?
Output line: inactive

Input line: Now consider O=C1C(Cl)=C(Cl)C(=O)C(Cl)=C1Cl and answer again.
Output line: inactive

Input line: Now consider CC(=O)O.CC(=O)O.CC(=O)O.CC(=O)O.CC(=O)O.CC(=O)O.CC(=O)O.O.O.[Cr].[Cr].[Cr] and answer again.
Output line: inactive

Input line: Now consider N#CCCl and answer again.
Output line: inactive

Input line: Now consider O=Cc1ccccc1 and answer again.
Output line: inactive

Input line: Now consider CCCCC/C=C\C/C=C\C/C=C\C/C=C\CCCC(=O)NCC(=O)O and answer again.
Output line: inactive

Input line: Now consider ClC1=C(Cl)[C@]2(Cl)[C@@H]3[C@H]4C[C@H]([C@@H]5O[C@H]45)[C@@H]3[C@@]1(Cl)C2(Cl)Cl and answer again.
Output line: inactive

Input line: Now consider COC(=O)/C=C(\C)OP(=O)(OC)OC and answer again.
Output line: inactive

Input line: Now consider C#CC1(O)CCCCC1 and answer again.
Output line: inactive

Input line: Now consider COP(=S)(OC)Oc1nc(Cl)c(Cl)cc1Cl and answer again.
Output line: inactive

Input line: Now consider CC(Cc1ccccc1)N(C)Cc1ccco1 (stereo not drawn) and answer again.
Output line: inactive

---

Assay: qHTS assay to identify small molecule antagonists of the estrogen receptor beta (ER-beta) signaling pathway - cell viability counter screen (AID 1259382); also: nearly all actives have a fitted effect of over 55% in size
Conditions: ER-beta-UAS-bla HEK293T viability, CellTiter-Glo luminescence, 16 h; series mostly up to 92.4 µM
Inconclusive results are not listed. The source made the active and inactive calls. Calls come from the whole dose curve; as a rule, active = well fitted cell-killing curve with a large enough effect in the repeat runs; inconclusive = weak or mixed curves; inactive = flat fitted curve, though single readings scatter.
Please answer using one outcome listed in Yes for active, No for inactive

// below: answered molecules
Input line: In this assay, the call recorded for O=[N+]([O-])c1ccc(Cl)c(Cl)c1Cl was what?
Output line: No

Input line: Now consider O.O.O.O.O.O.O=S(=O)([O-])[O-].[Ni+2] and answer again.
Output line: No

New cases:
Input line: In this assay, the call recorded for ClC1(Cl)C2(Cl)C3(Cl)C4(Cl)C(Cl)(Cl)C5(Cl)C3(Cl)C1(Cl)C5(Cl)C24Cl (stereo not drawn) was what?
Output line: No

Input line: Now consider CCCCON=O and answer again.
Output line: No

Input line: Now consider Cc1cc2c3c(c1)C(c1ccccc1)=N[C@@H](NC(=O)c1ccncc1)C(=O)N3CC2 and answer again.
Output line: No

Input line: Now consider COc1ccc(Cc2nccc3cc(OC)c(OC)cc23)cc1OC and answer again.
Output line: No

Input line: Now consider C[C@@H]1CC2=CC(=O)CC[C@@H]2[C@H]2CC[C@@]3(C)[C@@H](CC[C@]3(C)O)[C@@H]21 and answer again.
Output line: No

Input line: Now consider CCCN and answer again.
Output line: No

Input line: Now consider COC(=O)c1cc(Oc2ccc(Cl)cc2Cl)ccc1[N+](=O)[O-] and answer again.
Output line: No

Input line: Now consider Nc1nc(N)c(N)c(N)n1 and answer again.
Output line: No

Input line: Now consider Cc1ccc([N+](=O)[O-])[c]2c1[O][Hg]2 and answer again.
Output line: Yes

Input line: Now consider Fc1ccc(C(OCCN2CCN(CCCc3ccccc3)CC2)c2ccc(F)cc2)cc1 and answer again.
Output line: Yes

Input line: Now consider c1ccc2nc(N3CCNCC3)ccc2c1 and answer again.
Output line: No

---

Test: A CellTox Green Cytotoxicity Assay to monitor cytotoxicity in HEK293 cells - 40 hour (AID 1224871); also: nearly all actives have a fitted effect of over 45% in size
Conditions: CellTox Green fluorescence; series mostly up to 76.8 µM
Inconclusive results are not listed. The source made the active and inactive calls. The call rests on the fitted dose curve; in most records, active means well fitted activation curve with a large enough effect in the repeat runs; inconclusive means weak or mixed curves; inactive means flat fitted curve, though single readings scatter.
Please answer using one outcome listed in class 1 for active, class 0 for inactive

// below: answered compounds
Input line: In this assay, the call recorded for Brc1ccc(Oc2ccc(Br)cc2Br)c(Br)c1 was what?
Output line: class 0

Input line: Now consider ClSC(Cl)(Cl)Cl and answer again.
Output line: class 0

Input line: Now consider N#Cc1c2ccccc2cc2ccccc12 and answer again.
Output line: class 0

Input line: Now consider CC(C)C(Nc1ccc(C(F)(F)F)cc1Cl)C(=O)OC(C#N)c1cccc(Oc2ccccc2)c1 (stereo not given) and answer again.
Output line: class 0

Input line: Now consider ClC1=C(Cl)[C@]2(Cl)[C@@H]3[C@H]4C[C@H]([C@@H]5O[C@H]45)[C@@H]3[C@@]1(Cl)C2(Cl)Cl and answer again.
Output line: class 0

New cases:
Input line: In this assay, the call recorded for O=[N+]([O-])c1ccccc1-c1ccccc1 was what?
Output line: class 0

Input line: Now consider CC#C[C@]1(O)CC[C@H]2[C@@H]3C[C@H](C)C4=CC(=O)CC[C@]4(C)[C@H]3CC[C@@]21C and answer again.
Output line: class 0

Input line: Now consider CC(Cc1ccc2c(c1)OCO2)NO (stereo not given) and answer again.
Output line: class 0

Input line: Now consider COCCC#N and answer again.
Output line: class 0

Input line: Now consider CC(Cc1ccc(OCC(=O)O)cc1)NCC(O)c1csc(C(F)(F)F)n1 (stereo not given) and answer again.
Output line: class 0

Input line: Now consider O.O.O.O.O.O.O.O=S(=O)([O-])[O-].[Co+2] and answer again.
Output line: class 0

Input line: Now consider Clc1ccc(C(Cl)(Cl)Cl)cc1Cl and answer again.
Output line: class 1

Input line: Now consider OCC(Br)CBr (stereo not given) and answer again.
Output line: class 0

Input line: Now consider COP(=S)(OC)Oc1nc(Cl)c(Cl)cc1Cl and answer again.
Output line: class 0

Input line: Now consider COP(=S)(NC(C)C)Oc1ccc(C)cc1[N+](=O)[O-] (stereo not given) and answer again.
Output line: class 0

---

Experiment: qHTS assay to identify small molecule agonists of the androgen receptor (AR) signaling pathway in the presence of an antagonist - cell viability counter screen (AID 1259379); also: nearly all actives have a fitted effect of over 25% in size
Conditions: MDA-kb2 viability, CellTiter-Fluor, 16 h; series mostly up to 92.4 µM
Records with an inconclusive call do not appear. The source made the active and inactive calls. The call rests on the fitted dose curve; in most records, active means well fitted cell-killing curve with a large enough effect in the repeat runs; inconclusive means weak or mixed curves, or effect the other way; inactive means flat fitted curve, though single readings scatter.
Please answer using one outcome listed in active, inactive

Input line: In this assay, the call recorded for CCN(CC)CCc1c[nH]c2ccccc12 was what?
Output line: inactive

New cases:
Input line: In this assay, the call recorded for C=C(C)C(=O)[O][Sn]([CH2]CCC)([CH2]CCC)[CH2]CCC was what?
Output line: active

Input line: Now consider CCN1CCC2(CC1)COc1cc3c(cc12)N(C(=O)c1ccc(-c2ccc(-c4nnc(C)o4)cc2C)cc1)CC3 and answer again.
Output line: active

Input line: Now consider Nc1nc(N)c(N)c(N)n1 and answer again.
Output line: inactive

Input line: Now consider CCO/N=C(\CC)C1=C(O)CC(c2c(C)cc(C)cc2C)CC1=O (stereo not given) and answer again.
Output line: inactive

---

Assay: qHTS RealTime-Glo MT Cell Viability Assay in HEK293 cells - 32 hour (AID 1224868); also: nearly all actives have a fitted effect of over 50% in size
Details: RealTime-Glo luminescence; series mostly up to 76.8 µM
Records with an inconclusive call do not appear. Active and inactive are the calls of the source. Calls come from the whole dose curve; as a rule, active = well fitted cell-killing curve with a large enough effect in the repeat runs; inconclusive = weak or mixed curves, or effect the other way; inactive = flat fitted curve, though single readings scatter.
Please answer using one outcome listed in 1 (yes) for active, 0 (no) for inactive

Input line: In this assay, the call recorded for O=C(NC(=O)c1c(F)cccc1F)Nc1ccc(Oc2ccc(C(F)(F)F)cc2Cl)cc1F was what?
Output line: 1 (yes)

Input line: Now consider O=C(N[C@H]1N=C(c2ccccc2F)c2cccc3c2N(CC3)C1=O)c1cc2ccccc2[nH]1 and answer again.
Output line: 0 (no)

Input line: Now consider CCC(C)c1cccc(C(C)CC)c1O (configuration not stated) and answer again.
Output line: 0 (no)

Input line: Now consider CC1(C)C(C=C(Cl)Cl)C1C(=O)OC(C#N)c1ccc(F)c(Oc2ccccc2)c1 (configuration not stated) and answer again.
Output line: 0 (no)

Input line: Now consider Cc1c([N+](=O)[O-])cc2c(c1[N+](=O)[O-])C(C)(C)CC2(C)C and answer again.
Output line: 0 (no)

New cases:
Input line: In this assay, the call recorded for C[C@]12C/C(=C/O)C(=O)C[C@@H]1CC[C@@H]1[C@@H]2CC[C@@]2(C)[C@H]1CC[C@]2(C)O was what?
Output line: 0 (no)

Input line: Now consider CCCC[N+]1(C)CCCC1 (tested in a mixture with another compound) and answer again.
Output line: 0 (no)

Input line: Now consider CCCCn1cc[n+](C)c1 (tested in a mixture with another compound) and answer again.
Output line: 0 (no)

Input line: Now consider Nc1c(Cl)c(Cl)c(Cl)c(Cl)c1Cl and answer again.
Output line: 0 (no)

Input line: Now consider COc1ccc2c(c1OC)C(=O)O[C@@H]2[C@H]1c2cc3c(cc2CCN1C)OCO3 and answer again.
Output line: 0 (no)

Input line: Now consider BrCC(Br)(Br)Br and answer again.
Output line: 1 (yes)

Input line: Now consider CCN(CC)Cc1nccn1-c1ccc([N+](=O)[O-])cc1C(=O)c1ccccc1Cl and answer again.
Output line: 0 (no)
